# TARGET OR TEST SYSTEM: soluble cyno CD74 (cyno)
# Sequence (P04233 other isoform, or with tags, fused parts or gaps): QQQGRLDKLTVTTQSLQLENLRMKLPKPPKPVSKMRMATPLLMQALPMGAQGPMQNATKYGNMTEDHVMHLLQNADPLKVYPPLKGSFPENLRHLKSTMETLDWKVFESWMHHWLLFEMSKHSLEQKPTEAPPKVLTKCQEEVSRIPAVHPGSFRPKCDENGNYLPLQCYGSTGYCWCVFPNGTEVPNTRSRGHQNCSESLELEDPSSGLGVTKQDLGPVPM
# ASSAY COMMENT: SPR, Biacore 8K; IgG captured by anti-IgG Fc, soluble CD74 as analyte; 1:1 model, apparent kinetics
MEASUREMENT LABEL: koff
Remember to put the unit after the number in your answer.

Study these solved cases before continuing.
{"columns": ["BINDER", "koff"],
 "data": [
  ["Mil_HCx hzVk1a (antibody, V domains shown, Tested as IgG; also called hLL1 heavy chain with hzLL1-Vk1a light chain) VH: QVQLQQSGSELKKPGASVKVSCKASGYTFTNYGVNWIKQAPGQGLQWMGWINPNTGEPTFDDDFKGRFAFSLDTSVSTAYLQISSLKADDTAVYFCSRSRGKNEAWFAYWGQGTLVTVSS VL: DIVMTQTPLSLPVTPGEPASISCRSSQSLVHRNGNTYLHWYLQKPGQSPQLLIYTVSNRFSGVPDRFSGSGSGTDFTLKISRVEAEDVGVYFCSQSSHVPPTFGQGTKLEIK", "0.00058 s⁻¹"],
  ["Hcmil x LCmil_NQ (antibody, V domains shown, Tested as IgG; also called hLL1 heavy chain with hLL1 (NQ) light chain) VH: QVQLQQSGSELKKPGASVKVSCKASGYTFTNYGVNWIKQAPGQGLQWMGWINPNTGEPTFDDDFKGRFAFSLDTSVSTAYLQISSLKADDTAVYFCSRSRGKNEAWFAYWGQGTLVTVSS VL: DIQLTQSPLSLPVTLGQPASISCRSSQSLVHRNQNTYLHWFQQRPGQSPRLLIYTVSNRFSGVPDRFSGSGSGTDFTLKISRVEAEDVGVYFCSQSSHVPPTFGAGTRLEIK", "0.00077 s⁻¹"]
]}

[in] I am curious: what koff value has been reported for milatuzumab (antibody, V domains shown, also called hLL1; WT IgG) VH: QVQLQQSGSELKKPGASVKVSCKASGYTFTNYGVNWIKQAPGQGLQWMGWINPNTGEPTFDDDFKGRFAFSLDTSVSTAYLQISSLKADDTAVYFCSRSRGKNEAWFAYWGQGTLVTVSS VL: DIQLTQSPLSLPVTLGQPASISCRSSQSLVHRNGNTYLHWFQQRPGQSPRLLIYTVSNRFSGVPDRFSGSGSGTDFTLKISRVEAEDVGVYFCSQSSHVPPTFGAGTRLEIK ?
[out] 0.00088 s⁻¹
